Entries and their TGI values follow.
# System: HCT-15 colon
# test-details: NCI tumour cell line growth inhibition, 48 h

Study these solved cases before continuing.
1) O=C1/C(=C/c2ccc([N+](=O)[O-])s2)Oc2cc(Cl)ccc21; 1.12 µM
2) O=c1c2c3c(sc2nc2n1N=CN(c1ccccc1)C2)CCCC3; > 100 µM
3) CCOC(=O)c1c(NS(=O)(=O)c2ccc(C)cc2)sc2c1CCCC2; 42.1 µM
4) O=C1c2cc(I)ccc2N2CCN=C2N1Cc1ccccc1; > 100 µM
5) CCC(=O)Nc1cccc(N=Cc2ccc(OC(=O)/C=C\c3ccccc3)cc2)c1; > 75 µM
6) c1coc(-c2nccc3c2[nH]c2ccccc23)c1; > 100 µM

**Query** Item under review: Cc1ncc([N+](=O)[O-])n1CC[N+](C)([O-])CCCCn1ccnc1[N+](=O)[O-] (stereo unspecified) . Reported TGI?
**Result** > 100 µM

**Query** What measured TGI goes with CC(C)(C)N/N=C(\C(=O)Nc1cccc(Cl)c1)C1C(=O)Nc2ccccc2S1=O (stereo unspecified) ?
**Result** > 100 µM

**Query** Query: TGI; subject: O=C(CCBr)N1CCN(C(=O)CCBr)CC1
**Result** 222 µM

**Query** Recorded TGI of O=C(CCCn1c2c(sc3ccccc32)c(=O)n2nnc(-c3ccccc3)c12)NCCc1cnc[nH]1 , please.
**Result** 2.14 µM

**Query** Any idea what TGI was measured for N#CC1C[C@@H]2CC3(CCC2CN1C(=O)c1ccccc1)OCCO3 (stereo partly specified) ?
**Result** > 100 µM

* * *

# System: XF 498 CNS
# test-details: NCI tumour cell line growth inhibition, 48 h
quantity-kind: TGI (µM)
Express the result in µM but write the number alone.

Worked set:
1. CC[C@@]1(O)C[C@H](OC2CC(N(C)C)C(O)C(C)O2)c2c(cc3c(c2O)C(=O)c2c(O)ccc(O)c2C3=O)[C@H]1C(=O)OC (stereo not given in full); 0.463
2. COc1ccc(Nc2nc3cc(C(F)(F)F)ccc3nc2-c2ccccc2)cc1OC; 11.2
3. O=C(CCBr)N1CCN(C(=O)CCBr)CC1; 133
4. CC(=O)c1ccccc1NC(=O)C(=O)C(C(=O)c1ccc2ccccc2c1)C1OC(=O)c2ccccc21 (stereo not given); 18.1

Here is the next item to consider.
**Query** Any idea what TGI was measured for CN(C)C(=O)Oc1c(Br)cc(Br)cc1C(=O)OCc1ccccc1 ?
**Result** 49.2

* * *

Reported TGI values follow for various compounds
# Test system: SNB-75 CNS
# test-details: NCI tumour cell line growth inhibition, 48 h
Answer in µM, number only, no unit symbol.

1. CCCCCCCCCCNCCSSCc1ccc(Cl)cc1; 20.6
2. COc1cc(C2S/C(=C/c3ccccc3)C(=O)N2Cc2ccccc2)cc(OC)c1OC (centres undefined); 73.3
3. COC1=CC(c2ccc[nH]2)=N/C1=C\c1[nH]c(C)c(C(=O)CCC(=O)Oc2ccc3c(c2)CCC2C3CC[C@]3(C)[C@@H](O)CC[C@@H]23)c1C (some centres undefined); 58.4

// switching to the query compound
**Query** Can you look up TGI on SNB-75 CNS for CCC(C)(C)c1cc(O)c(C(C)(C)CC)cc1O ?
**Result** 16.5
